Ref: ChEMBL document CHEMBL5604062

Molecular target: UniProtKB A0A024AXB9
Sequence (A0A024AXB9 whole entry): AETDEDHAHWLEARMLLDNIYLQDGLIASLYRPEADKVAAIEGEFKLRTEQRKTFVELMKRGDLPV
Test: Functional biochemical assay to identify treatments for viral infectious disease that targets Zika NS2B-NS3 protease. Utilizing a direct enzyme activity measurement method, reading the fluorescence intensity is used to characterize the relative potency of inhibitors as IC50.
Set-up: species or system PRVABC59
pIC50: −log10 of the molar value.
Label criterion met when pIC50 is at or above 5; anything below gets criterion not met.

Exercise: pIC50 >= 5 for "NCc1cccc(N[C@H](CCCO)c2cc(Cl)cc(NC(=O)OCc3ccccc3)c2)c1" ?
Solution: criterion not met

Exercise: Tell me whether pIC50 is at least 5 here: "O=C(Nc1ccc2c(c1)CNC2)c1ccc(OC(F)(F)F)cc1"
Solution: criterion not met

Exercise: Dear colleague, could you confirm whether "COCc1cc(Cl)cc(C(=O)Nc2cccc(CN)c2)c1" has pIC50 at or above 5?
Solution: criterion not met

Exercise: Can "C#Cc1cc(Cl)cc(C(=O)Nc2ccc3c(c2)CNC3)c1" be said to have pIC50 at or above 5?
Solution: criterion met

Exercise: Threshold query (pIC50 >= 5) on "O=C(Nc1cc(Cl)cc(C(=O)Nc2nc3c(s2)CNC3)c1)OCc1ccccc1"
Solution: criterion not met

Exercise: Reported pIC50 reaches at least 5 for "Cc1ccc(C(C)C)c(C(=O)Nc2ccc3c(c2)CNC3)c1" ?
Solution: criterion met

Exercise: Reported pIC50 reaches at least 5 for "NCc1cccc(NC(=O)[C@@H](NC(=O)OCc2ccccc2)C2CCN(Cc3cccnc3)CC2)c1" ?
Solution: criterion not met

Exercise: Is reported pIC50 greater than or equal to 5 here: "CNC(=O)[C@H](Nc1cc(CNC(=O)OC(C)(C)C)cc(C(=O)O)c1)c1cc(Cl)cc(C2CC2)c1"
Solution: criterion not met

Exercise: Tell me whether pIC50 is at least 5 here: "COC(=O)[C@@H](C)NC(=O)c1cc(Cl)ccc1NS(=O)(=O)c1ccc(Oc2ccccc2Cl)cc1"
Solution: criterion not met

Exercise: Identify whether the reported pIC50 of the following compound is 5 or greater: "CCn1cc(-c2ccc(OC)c(C)c2)nc(N2CC[C@@H](CO)C2)c1=O"
Solution: criterion not met

Exercise: Check if pIC50 >= 5 (inclusive). Item: "CS(=O)(=O)NC(=O)C[C@H]1NCc2cc(NC(=O)c3cc(Cl)cc4[nH]ncc34)ccc21"
Solution: criterion met

Exercise: Given "O=C(Nc1cc(Cl)cc(C(=O)N[C@H]2CCCC[C@@H]2C(=O)O)c1)OCc1ccccc1" , state whether its pIC50 is at least 5.
Solution: criterion not met

Exercise: In plain terms: is recorded pIC50 at least 5 for "NC(=O)[C@H](c1c[nH]c2ccccc12)N1CCC(c2cnc3ccc[nH]c2-3)CC1" ?
Solution: criterion not met

Exercise: hey, is pIC50 for this one >= 5? "NCc1ccc(CNC(=O)c2cc(Cl)cc(NC(=O)OCc3ccccc3)c2)c(F)c1"
Solution: criterion not met

Exercise: Can "CNC(=O)[C@H](Nc1cccc(CN)c1)c1cc(Cl)cc(NC(=O)OCc2ccccc2)c1" be said to have pIC50 at or above 5?
Solution: criterion met

Exercise: Determine whether this compound has pIC50 no lower than 5: "O=C(Nc1ccc2c(c1)CNC2)c1ccn[nH]1"
Solution: criterion not met

Exercise: Does "CC1([C@H]2CCCN(C(=O)Nc3ccc4c(c3)CNC4)C2)CC1" have a reported pIC50 of at least 5?
Solution: criterion not met

Exercise: pIC50 >= 5 for "O=C(Nc1cc(Cl)cc(C(=O)N[C@]2(c3nnn[nH]3)CCOC2)c1)OCc1ccccc1" ?
Solution: criterion not met

Exercise: Answer whether pIC50 of "N=C(N)NCCc1ccccc1B(O)O" is greater than or equal to 5.
Solution: criterion not met
